System: Escherichia coli
procedure-summary: Inhibition of Escherichia coli recombinant C terminal His-tagged MurG expressed in Escherichia coli C43 assessed as inhibition of […] labelled lipid intermediate 2 formation at 1 mM over 15 mins by scintillation counting
measurement-label: inhibition (%)
Respond numerically; units are % and should not be typed.

So what's the measured inhibition for this one? `COC(=O)[C@@H]1[C@H]2C(=O)N(CC(=O)NC[C@H]3O[C@@H](n4ccc(=O)[nH]c4=O)[C@H](O)[C@@H]3O)C(=O)[C@@H]2N[C@@H]1c1ccccc1OC`
22

So what's the measured inhibition for this one? `COC(=O)[C@@H]1[C@@H]2C(=O)N(CC(=O)NC[C@H]3O[C@@H](n4ccc(=O)[nH]c4=O)[C@H](O)[C@@H]3O)C(=O)[C@@H]2N[C@@H]1c1ccccc1`
0

***
So what's the measured inhibition for this one? `COC(=O)[C@@H]1[C@@H]2C(=O)N(CC(=O)NC[C@H]3O[C@@H](n4ccc(=O)[nH]c4=O)[C@H](O)[C@@H]3O)C(=O)[C@@H]2N[C@@H]1c1cccc(OC)c1OC`
0

So what's the measured inhibition for this one? `COC(=O)[C@@H]1[C@@H]2C(=O)N(CC(=O)NC[C@H]3O[C@@H](n4ccc(=O)[nH]c4=O)[C@H](O)[C@@H]3O)C(=O)[C@@H]2N[C@@H]1c1ccccc1OC`
0

* * *

subject-of-test: Galactofuranosyltransferase GlfT2 (Mycobacterium tuberculosis)
procedure-summary: Inhibition of Mycobacterium tuberculosis GlfT2 assessed as incorporation of [14C]Gal at 1 mM by scintillation counting
measurement-label: inhibition (%)
Respond numerically; units are % and should not be typed.

So what's the measured inhibition for this one? `COC(=O)[C@@H]1[C@@H]2C(=O)N(CC(=O)NC[C@H]3O[C@@H](n4ccc(=O)[nH]c4=O)[C@H](O)[C@@H]3O)C(=O)[C@@H]2N[C@@H]1c1ccccc1`
80

So what's the measured inhibition for this one? `C[C@@]1(C(=O)NCC(=O)NC[C@H]2O[C@@H](n3ccc(=O)[nH]c3=O)[C@H](O)[C@@H]2O)N[C@H]([C@H](O)CO)[C@@H]2C(=O)N(c3ccccc3)C(=O)[C@@H]21`
0

So what's the measured inhibition for this one? `COC(=O)[C@@H]1[C@@H]2C(=O)N(CC(=O)NC[C@H]3O[C@@H](n4ccc(=O)[nH]c4=O)[C@H](O)[C@@H]3O)C(=O)[C@@H]2N[C@@H]1c1ccc(OC)c(OC)c1`
0

So what's the measured inhibition for this one? `COC(=O)[C@@H]1[C@@H]2C(=O)N(CC(=O)NC[C@H]3O[C@@H](n4ccc(=O)[nH]c4=O)[C@H](O)[C@@H]3O)C(=O)[C@@H]2N[C@@H]1c1ccccc1OC`
0

So what's the measured inhibition for this one? `COc1cccc([C@H]2N[C@@](C)(C(=O)NCC(=O)NC[C@H]3O[C@@H](n4ccc(=O)[nH]c4=O)[C@H](O)[C@@H]3O)[C@H]3C(=O)N(c4ccccc4)C(=O)[C@@H]23)c1OC`
0
